Values from patent US20110105397A1

Experiment: Nonclinical pharmacokinetics in dogs
Parameters: species or system dog
Details: male, in vivo; dog IV infusion 3 hours, M, 8.33 ng/kg/min; read-out: CL
Procedure: A sandwich immunoassay was developed using an affinity purified goat polyclonal antibody, specific to h-SCP that was pre-coated onto a microplate with integrated electrodes. h-SCP molecules present in the sample will bind to the capture polyclonal antibody coated on the plate. […] This conjugated antibody will bind to the h-SCP molecules captured on the microplate and the quantity of analyte was determined by electrochemiluminescence. […]
measurement_name: clearance

Q: Report clearance for H-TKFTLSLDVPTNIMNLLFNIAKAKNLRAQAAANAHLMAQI-NH2 [SEQ ID NO: 1] please.
A: 3.87 mL/min/kg
